Molecular target: NAD-dependent protein deacetylase sirtuin-1 (Homo sapiens) (UniProt Q96EB6)
Sequence (whole entry): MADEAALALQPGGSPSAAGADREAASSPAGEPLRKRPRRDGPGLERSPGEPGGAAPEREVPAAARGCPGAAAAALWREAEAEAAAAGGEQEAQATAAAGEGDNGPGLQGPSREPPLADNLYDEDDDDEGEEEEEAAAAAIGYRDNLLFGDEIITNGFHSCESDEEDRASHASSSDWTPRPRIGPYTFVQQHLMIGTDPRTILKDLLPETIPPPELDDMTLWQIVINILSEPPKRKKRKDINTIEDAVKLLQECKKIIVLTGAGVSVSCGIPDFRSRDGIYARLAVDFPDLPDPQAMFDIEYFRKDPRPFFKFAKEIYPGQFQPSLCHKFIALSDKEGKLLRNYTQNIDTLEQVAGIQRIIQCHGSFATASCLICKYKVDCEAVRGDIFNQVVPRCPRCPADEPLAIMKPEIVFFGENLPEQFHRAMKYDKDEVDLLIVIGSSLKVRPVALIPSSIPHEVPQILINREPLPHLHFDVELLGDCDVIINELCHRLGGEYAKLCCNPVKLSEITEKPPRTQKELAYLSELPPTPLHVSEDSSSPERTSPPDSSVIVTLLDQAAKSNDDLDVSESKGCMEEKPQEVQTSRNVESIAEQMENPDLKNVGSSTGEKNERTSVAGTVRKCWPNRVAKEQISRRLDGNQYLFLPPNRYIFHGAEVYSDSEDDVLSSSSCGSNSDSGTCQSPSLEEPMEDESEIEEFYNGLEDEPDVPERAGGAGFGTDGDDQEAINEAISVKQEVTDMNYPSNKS
Assay: Inhibition of SIRT1 in human U937 cells assessed as H3 acetylation on lysine K9 at 5 uM after 24 hrs by Western blot analysis
Format: cell-based
Settings: U-937
Activity calls are given as the source filed them. The calls are words filed in the database; no cut-off is given here.
The reply should be one of these categories: active, inactive

For orientation, consider the following solved cases.
>>> print(df.to_string())
                             chemicalsmiles     label
0   COCCNC(=O)/C(Cc1c[nH]c2ccc(Br)cc12)=N/O  inactive
1  O=C(NCCSSCCNC(=O)/C(Cc1cn(Cc2ccc(Br)cc2)c2ccc(Br)cc12)=N/O)/C(Cc1cn(Cc2ccc(Br)cc2)c2ccc(Br)cc12)=N/O    active
2  O=C(NCCCCCCCCNC(=O)/C(Cc1c[nH]c2ccc(Br)cc12)=N/O)/C(Cc1c[nH]c2ccc(Br)cc12)=N/O    active
3  O=C(NCCCCSSCCCCNC(=O)/C(Cc1c[nH]c2ccc(Br)cc12)=N/O)/C(Cc1c[nH]c2ccc(Br)cc12)=N/O    active

// outcome(item) with item = `Cn1cc(C/C(=N\O)C(=O)NCCSSCCNC(=O)/C(Cc2cn(C)c3ccc(Br)cc23)=N/O)c2cc(Br)ccc21`
active

What about this molecule? `O=C(NCCO)/C(Cc1c[nH]c2ccc(Br)cc12)=N/O`
inactive

What about this molecule? `CSCCNC(=O)/C(Cc1c[nH]c2ccc(Br)cc12)=N/O`
active

###

Target: NAD-dependent protein deacetylase sirtuin-1 (Homo sapiens) (UniProt Q96EB6)
Sequence (whole entry): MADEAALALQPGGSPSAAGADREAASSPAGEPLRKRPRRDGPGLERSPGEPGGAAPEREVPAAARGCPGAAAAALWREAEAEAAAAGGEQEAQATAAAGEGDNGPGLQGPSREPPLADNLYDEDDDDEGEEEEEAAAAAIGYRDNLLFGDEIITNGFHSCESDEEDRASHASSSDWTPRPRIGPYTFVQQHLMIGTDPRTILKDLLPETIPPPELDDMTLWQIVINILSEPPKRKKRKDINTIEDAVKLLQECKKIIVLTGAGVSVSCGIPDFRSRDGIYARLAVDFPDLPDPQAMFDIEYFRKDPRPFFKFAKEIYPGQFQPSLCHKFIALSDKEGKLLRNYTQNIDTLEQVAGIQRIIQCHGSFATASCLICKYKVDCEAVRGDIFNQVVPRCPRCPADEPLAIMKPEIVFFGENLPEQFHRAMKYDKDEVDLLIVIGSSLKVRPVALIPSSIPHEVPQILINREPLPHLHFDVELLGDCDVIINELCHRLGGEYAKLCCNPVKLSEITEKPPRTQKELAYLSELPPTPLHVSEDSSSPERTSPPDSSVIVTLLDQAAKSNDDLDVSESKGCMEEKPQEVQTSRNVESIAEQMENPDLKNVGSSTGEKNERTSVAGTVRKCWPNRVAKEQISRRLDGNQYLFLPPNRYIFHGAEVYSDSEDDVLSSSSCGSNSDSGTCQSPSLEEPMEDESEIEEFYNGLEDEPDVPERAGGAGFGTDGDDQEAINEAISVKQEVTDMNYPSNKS
Experiment: Inhibition of SIRT1 in human MCF7 cells assessed as p53 acetylation on lysine 382 at 5 uM after 24 hrs by Western blot analysis
Type: cell-based
Calls of active or inactive are those of the source. The rule behind the calls is not given here.
The reply should be one of these categories: active, inactive

For orientation, consider the following solved cases.
In [3]: df
Out[3]:
                             chemicalsmiles   label
0  O=C(NCCSSCCNC(=O)/C(Cc1c[nH]c2ccc(Br)cc12)=N/O)/C(Cc1c[nH]c2ccc(Br)cc12)=N/O  active
1  O=C(NCCSSCCNC(=O)/C(Cc1c[nH]c2ccccc12)=N/O)/C(Cc1c[nH]c2ccccc12)=N/O  active
2   CSCCNC(=O)/C(Cc1c[nH]c2ccc(Br)cc12)=N/O  active

// next entry
// outcome(item) with item = `O=C(NCCCCSSCCCCNC(=O)/C(Cc1c[nH]c2ccc(Br)cc12)=N/O)/C(Cc1c[nH]c2ccc(Br)cc12)=N/O`
inactive

These measurements were taken from ChEMBL document CHEMBL2177007.
